SYSTEM_UNDER_TEST: Endothelial PAS domain-containing protein 1 (Homo sapiens, UniProt Q99814)
Sequence (Q99814 whole entry, the tested form may be a part): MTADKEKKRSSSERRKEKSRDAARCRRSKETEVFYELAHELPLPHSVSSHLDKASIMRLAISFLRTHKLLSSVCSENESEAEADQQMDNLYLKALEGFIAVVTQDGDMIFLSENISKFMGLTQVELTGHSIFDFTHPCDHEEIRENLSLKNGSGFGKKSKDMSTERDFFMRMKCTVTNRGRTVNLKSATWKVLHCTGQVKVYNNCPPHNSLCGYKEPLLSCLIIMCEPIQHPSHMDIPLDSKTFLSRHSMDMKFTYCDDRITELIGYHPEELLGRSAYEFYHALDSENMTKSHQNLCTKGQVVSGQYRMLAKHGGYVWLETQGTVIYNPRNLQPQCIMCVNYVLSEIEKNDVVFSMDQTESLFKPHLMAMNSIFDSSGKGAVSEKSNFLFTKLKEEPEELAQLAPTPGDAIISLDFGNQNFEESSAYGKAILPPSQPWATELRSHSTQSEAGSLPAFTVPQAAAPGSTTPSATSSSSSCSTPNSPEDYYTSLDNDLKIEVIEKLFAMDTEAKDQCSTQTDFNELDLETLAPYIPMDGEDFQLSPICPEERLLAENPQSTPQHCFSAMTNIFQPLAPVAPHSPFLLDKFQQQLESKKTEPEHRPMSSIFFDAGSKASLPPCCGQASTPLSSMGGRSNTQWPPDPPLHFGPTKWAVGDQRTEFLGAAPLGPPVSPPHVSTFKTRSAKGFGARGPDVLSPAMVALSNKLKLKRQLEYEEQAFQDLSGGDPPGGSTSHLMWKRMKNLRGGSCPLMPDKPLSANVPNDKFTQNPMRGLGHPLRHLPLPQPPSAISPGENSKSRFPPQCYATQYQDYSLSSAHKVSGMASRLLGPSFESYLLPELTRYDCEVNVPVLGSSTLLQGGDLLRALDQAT
PROTOCOL: Inhibition of HIF2alpha in human 786-0 cells expressing truncated HIF1alpha assessed as reduction in luciferase activity after 24 hrs by reporter gene assay
PROPERTY_LABEL: log10 EC50 (log10 of the value in µM)
A value of 2 here means EC50 of 100 in µM, since values are log10.

Worked set:
CC1(C)CCC[C@]2(C)[C@H]3C=C4C=C(O)C(=O)C=C4O[C@@]3(C)CC[C@@H]12 :: 0.52
Nc1nccc(-c2c3c(O)ccnc3n3c(N)nccc23)n1 :: -0.15
C1=C/[C@H]2[C@@H]3CCCC[C@H]3C[C@@H]2NCCCN[C@@H]2C[C@@H]3CCCC[C@H]3[C@@H]2/C=C/1 :: 1.17
CC(=O)O[C@H]1C[C@H]2[C@@](C)(CC[C@H]3C(C)(C)CCC[C@@]32C=O)[C@@H]2CC=C(C(C)=O)[C@H](C=O)[C@@]12C :: 0.62
C/C=C(/C)C(=O)OCC1C2=C(C=CN1C=O)C(=O)C(C)=C(OC)C2=O (mixture of isomers) :: 0.43
CC(=O)O[C@@H]1OC=C2[C@@H](OC(C)=O)C[C@H]3[C@]4(C)CC[C@H]5C(C)(C)CCC[C@]5(C)[C@H]4C[C@@H](O)[C@]3(C)[C@H]21 :: 0.08

Ask: Return reported log10 EC50. Input compound: C#C[C@@H](O)/C=C/CCCCCCC#C[C@H](O)C#C/C=C/CC/C=C\CCCC/C=C\CCCCCCCCCCCCC/C=C/[C@@H](O)C#C
Result: 0.94
